Target: neural stem cell surface (cell surface molecule(s) of NSCs, not identified) (rat (adult hippocampus, stated in Example 1))
Assay: flow cytometry, GFP bacterial clone displaying the peptide on NSCs
// reported % NSCs with Bacteria for each item listed
Quantity kind: % NSCs with Bacteria (%)

INSERT INTO measurements (binder, assay_result) VALUES
  ('LECPGESKYYCIY [clone Co-11 peptide]', 72.7),
  ('LECTERGDFNCFV [clone 7C-7 peptide]', 47.8),
  ('SKCWGWTPYYCVA [clone Co-9 peptide]', 75.7),
  ('LNCAMYNACIW [clone 7C-14 peptide]', 54.5),
  ('WSCPKVNQYACFW [clone Co-2 peptide]', 74.8),
  ('WVCIWERFKSCNE [clone 7C-20 peptide]', 65.7),
  ('RLCCWKTQYFCEI [clone Co-20 peptide]', 70.9),
  ('WLCLDKNCMACVW [clone 7C-8 peptide]', 68.8);

All figures here come from patent US20100189760A1.
